Test: chemical genetic growth profiling, strain panel (AID 1159580);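 also: tested at 20 µM; growth read once vehicle control cultures reached saturation at 30 °C; 1 = growth at the plate median or of vehicle wells; lower values mean less growth of the strain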
Details: S. cerevisiae deletion strains, growth OD, locus YDL040C, strain nat1, stronger effect = lower value
Among all 5,500 compounds or so, about 2,000 (36%) were called active. Roughly 18% stayed inconclusive and do not appear here. Some of the results follow.
measurement_label: normalized growth
Give bare numbers.

compound	normalized growth
COc1ccc2ccc(=O)oc2c1CC=C(C)C	0.91
N#Cc1ccc2c(c1)N(CCCN1CCC(O)CC1)c1ccccc1S2	0.975
CC(C)=CCc1c(O)cc2occ(-c3ccc4c(c3)OCO4)c(=O)c2c1O	1
CC(=O)OC1CCC2C3CCc4cc(O)ccc4C3CCC12C (centres undefined)	1.01
COc1cc(O)c(C)c(O)c1	1.01

Provide each entry's normalized growth from the list below.
1. COc1cc2ccc(=O)oc2cc1O
2. c1ccc2c(c1)[nH]c1cnccc12
3. CCC(=O)O[C@H]1CCC2C3CCc4cc(O)ccc4C3CC[C@@]21C (some centres undefined)
4. O=C1c2ccccc2C(=O)c2c(O)c(O)cc(O)c21
5. CC(=O)OC1CCC23C(=O)OC45CCC(C6=CC(=O)OC6)C4(C)CCC2C5CCC3(O)C1 (centres undefined)
6. O=c1[nH]cnc2nc[nH]c12
7. CN1Cc2c(N)cccc2C(c2ccccc2)C1 (centres undefined)
8. N#C/C(=C\c1ccc(O)cc1)C(=O)O

# output
1: 0.973; 2: 0.995; 3: 1; 4: 0.639; 5: 0.99; 6: 1; 7: 1.01; 8: 1

Give measured normalized growth for every item shown.
1. COP(=S)(OC)SCn1nnc2ccccc2c1=O
2. Cc1c(N(C)CS(=O)(=O)O)c(=O)n(-c2ccccc2)n1C
3. C[N+]1(C)C2CC[C@H]1CC(OC(=O)C(O)c1ccccc1)C2 (some centres undefined)

# output
[1.01, 1.01, 0.997]

For the 6 compounds below, give their normalized growth values.
1. O=C(O)c1cccc(O)c1O
2. O=c1ccc2cc(O[C@@H]3O[C@H](CO)[C@@H](O)[C@H](O)[C@H]3O)c(O)cc2o1
3. CC1(C)C[C@@H]2C(=O)CC[C@H]3O[C@]3(C)CC[C@H]21
4. COc1ccc2c(c1)[nH]c1c(C)nccc12
5. O=c1ccc2ccc(O)c(O)c2o1
6. O=C(CCCN1CC=C(n2c(=O)[nH]c3ccccc32)CC1)c1ccc(F)cc1

# output
[1.02, 0.976, 1.02, 0.995, 1.01, 0.992]

###

Assay: chemical genetic growth profiling, strain panel (AID 1159580);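 also: tested at 20 µM; growth read once vehicle control cultures reached saturation at 30 °C; 1 = growth at the plate median or of vehicle wells; lower values mean less growth of the strain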
Settings: S. cerevisiae deletion strains, growth OD, locus YPR025C, strain CCL1, stronger effect = lower value
Hit rate of the full screen: of about 5,500 compounds, about 2,000 (36%) were called active. Inconclusive results (about 18%) are left out. The list shows a part of the results.
Exercise: for every item that follows, state its recorded normalized growth.
Numbers only.

Consider the following illustrative entries.
compound	normalized growth
Cc1nc(C(F)(F)F)ccc1C(=O)Sc1nnc(-c2ccc(C(F)(F)F)nc2C)o1	0.949
Nc1ccc(N2CCN(c3ccc(C(F)(F)F)cn3)CC2)nc1	0.981
CCOC(=O)C1C(c2ccc(Br)cc2)C(C(=O)OCC)C(O)(C(F)(F)F)NC1(O)C(F)(F)F (stereo not given)	0.997
O=C(N/N=C\c1cc(Cl)cc(Cl)c1O)c1ccccc1Oc1ccccc1	0.966
N#C/C(=N/Nc1ccc(Cl)cc1)C(=O)C1CC1	0.856
CSc1nc(Sc2n[nH]c(-c3ccccc3)n2)cc(Sc2n[nH]c(-c3ccccc3)n2)n1	1.01

Each compound below has a reported value. Please supply its normalized growth.
1. N/C(=N/OC(=O)c1ccccc1Cl)c1ccc2nonc2c1
2. CC(C)(C)c1cc(C(=O)/C(C#N)=N\Nc2ccc(Cl)cc2)no1
3. FC(F)(F)c1ccc(NC(=S)Nc2ccc(C(F)(F)F)cc2Cl)c(Cl)c1
4. Cc1nn(Cc2cccc(C(=O)O/N=C(/N)c3ccc(Cl)cc3)c2)c(C)c1Br

# output
0.962
0.961
0.966
0.978
